Measured IC50 by item
MEASURED_TARGET: Avi-KRAS WT (1-169) GppNHp/RAF1 RBD-3xFLAG (52-151) (Homo sapiens)
Construct: Avi-KRAS WT (1-169)
Sequence (P01116 1-169 isoform P01116-2): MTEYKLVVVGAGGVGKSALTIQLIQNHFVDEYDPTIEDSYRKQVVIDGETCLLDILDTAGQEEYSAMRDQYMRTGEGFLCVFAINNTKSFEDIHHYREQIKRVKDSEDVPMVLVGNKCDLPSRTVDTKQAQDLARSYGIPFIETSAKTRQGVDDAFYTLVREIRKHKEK
TEST_DETAILS: Raf1-KRAS WT-GppNHP disruption HTRF assay (Biological Example 1)
Format: binding
MEASUREMENT_SETUP: KRAS WT, GppNHp-loaded; class symbols

CCN(c1nc(OC[C@@]23CCCN2C[C@H](F)C3)nc2c(F)c(-c3ccc(F)c4sc(N)c(C#N)c34)c(C(F)(F)F)cc12)[C@H]1C[C@H](COC)N(C(C)=O)C1 (atropisomer, axis not shown) [Compound 647] ... 100 to 1000 nM

# IC50 lookup, item CCN(c1nc(OC[C@@]23CCCN2C[C@H](F)C3)nc2c(F)c(-c3ccc(F)c4sc(N)c(C#N)c34)c(C(F)(F)F)cc12)[C@H]1CCN(C(=O)[C@@H](C)CF)C1 (atropisomer, axis not shown) [Compound 710]
< 100 nM
